# Tested target: T1, human Ror2 (human, UniProt Q01974 34-403, limits assumed)
# T1 construct: also called hROR2; receptor tyrosine kinase-like orphan receptor 2
# T1 sequence (Q01974 34-403 limits assumed): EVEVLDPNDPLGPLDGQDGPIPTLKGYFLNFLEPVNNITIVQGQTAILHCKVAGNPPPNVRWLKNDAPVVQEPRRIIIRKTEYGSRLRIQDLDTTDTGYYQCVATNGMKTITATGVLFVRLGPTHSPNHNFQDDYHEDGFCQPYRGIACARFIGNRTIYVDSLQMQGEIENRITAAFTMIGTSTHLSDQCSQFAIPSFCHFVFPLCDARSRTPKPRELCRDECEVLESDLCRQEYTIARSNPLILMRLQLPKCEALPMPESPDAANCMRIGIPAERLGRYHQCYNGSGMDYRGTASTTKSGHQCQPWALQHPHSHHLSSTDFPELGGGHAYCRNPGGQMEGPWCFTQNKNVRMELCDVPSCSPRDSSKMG
# Assay name: ELISA, human Ror2, pH 7.4; note: unit not given here
Exercise: for every item that follows, state its recorded Affinity ELISA pH 7.4.
Lab note: jot the number down without any unit.

Enquiry: Given the binder LC-S030D (antibody, V domains shown) VH: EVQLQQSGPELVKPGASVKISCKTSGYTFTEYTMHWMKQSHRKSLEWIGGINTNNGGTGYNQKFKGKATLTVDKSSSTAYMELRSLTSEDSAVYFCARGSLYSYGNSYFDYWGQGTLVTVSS VL: QIVLTQSPAIMSASPGEKVTITCSATSSVDYMHWFQQKPGTSPKLWIYGTSNLASGVPARFSGSGSGTSYSLTISRMEAEDAATYYCQQRSSYPFTFGQGTKVEIK , what is its reported Affinity ELISA pH 7.4?
Return: 0.252

Enquiry: Here is the next binder: LC-V029E (antibody, V domains shown) VH: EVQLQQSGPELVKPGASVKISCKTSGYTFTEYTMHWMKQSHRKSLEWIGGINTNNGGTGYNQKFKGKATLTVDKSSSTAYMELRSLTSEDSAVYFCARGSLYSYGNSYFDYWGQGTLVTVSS VL: QIVLTQSPAIMSASPGEKVTITCSATSSESYMHWFQQKPGTSPKLWIYGTSNLASGVPARFSGSGSGTSYSLTISRMEAEDAATYYCQQRSSYPFTFGQGTKVEIK
Return: 0.129

Enquiry: Here is the next binder: LC-F097E (antibody, V domains shown) VH: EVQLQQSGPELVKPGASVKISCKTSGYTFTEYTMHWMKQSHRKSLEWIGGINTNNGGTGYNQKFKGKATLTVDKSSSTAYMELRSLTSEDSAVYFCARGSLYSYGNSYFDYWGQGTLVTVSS VL: QIVLTQSPAIMSASPGEKVTITCSATSSVSYMHWFQQKPGTSPKLWIYGTSNLASGVPARFSGSGSGTSYSLTISRMEAEDAATYYCQQRSSYPFTEGQGTKVEIK
Return: 0.215

Enquiry: Here is the next binder: LC-S092D (antibody, V domains shown) VH: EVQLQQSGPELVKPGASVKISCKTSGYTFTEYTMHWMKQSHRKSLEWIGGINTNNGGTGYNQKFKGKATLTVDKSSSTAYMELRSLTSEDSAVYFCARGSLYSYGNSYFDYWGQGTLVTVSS VL: QIVLTQSPAIMSASPGEKVTITCSATSSVSYMHWFQQKPGTSPKLWIYGTSNLASGVPARFSGSGSGTSYSLTISRMEAEDAATYYCQQRSDYPFTFGQGTKVEIK
Return: 1.12
